Tested on: Plasmodium falciparum
Assay: Plasmodium falciparum sporozoite viability assay; further: in the data most compounds retested in dose-response had high values
Assay type: functional, organism-based
The whole screen tested about 34,000 compounds, of which about 290 (0.85%) showed an effect of 50% or more. The list comes from a sample in which strong results are over-represented; it also holds close analogues and randomly drawn compounds.
Measured Percent Effect values are reported for all entries that follow.
Reported endpoint: Percent Effect (%)

molecule="NC(=O)N1CCC2(CC1)CC(=O)N(CC1CCCO1)c1ccccc12 (configuration not stated)" units_symbol=% experimental_value=6.567
molecule=Cc1nn(C)cc1CN(C)Cc1cc2c(cc1OC(F)F)OCO2 units_symbol=% experimental_value=5.075
molecule="Cc1ccc(N2CCCC(NCC3=Cc4ccccc4OC3)C2)nn1 (configuration not stated)" units_symbol=% experimental_value=9.337
molecule=COCCOCC(=O)Nc1ccc(C)cc1F units_symbol=% experimental_value=-13.64
molecule="CCOc1ccc(C(=O)N2CCCC2c2cnn(C)c2)cn1 (configuration not stated)" units_symbol=% experimental_value=2.866
molecule=CCN1CC[C@@H]2OC[C@H](C(=O)NCc3cccs3)C[C@@H]2C1 units_symbol=% experimental_value=18.4
molecule="CC(C)NC(=O)CC1CC2(CCN(CC3CC3)CC2)Oc2ccccc21.O=C(O)C(F)(F)F (configuration not stated)" units_symbol=% experimental_value=11.82
molecule=Cc1ccc(NC2CCN(C(=O)c3cnn(C(C)(C)C)c3)CC2)nn1 units_symbol=% experimental_value=-0.1023
molecule=CS(=O)(=O)NCc1cn2c(n1)CN(C(=O)c1ccc[nH]1)CC2 units_symbol=% experimental_value=-21.11
molecule="CN(C)CCOCC1CN(Cc2ccc(F)cc2)Cc2nnn(C)c21.O=C(O)C(F)(F)F.O=C(O)C(F)(F)F (configuration not stated)" units_symbol=% experimental_value=3.947
molecule="O=C(O)C(F)(F)F.O=C(O)C(F)(F)F.c1ccc(NCc2cnc3n2CCN(CC2CCOC2)CC3)nc1 (configuration not stated)" units_symbol=% experimental_value=-7.491
molecule="Cc1nc(C)n(CC2CCCN(CCOc3ccc(C#N)cc3)C2)n1 (configuration not stated)" units_symbol=% experimental_value=-0.23
molecule=COc1ccc(CN2Cc3[nH]nc(C(=O)N(C)C)c3C2)cc1 units_symbol=% experimental_value=11.47
molecule=O=C1CCCN1Cc1nnc2n1CCN(Cc1ccco1)C2 units_symbol=% experimental_value=15.42
molecule=CNC(=O)CCNC(=O)CCc1c(C)nc2cc(O)nn2c1C units_symbol=% experimental_value=8.263
molecule=CC(C)NC(=O)C1CCN(c2nc3nc[nH]c(=O)c3s2)CC1 units_symbol=% experimental_value=4.304
molecule="FC1(F)CCN(Cc2ccncc2)CC12CCN(c1cnccn1)C2.O=C(O)C(F)(F)F.O=C(O)C(F)(F)F.O=C(O)C(F)(F)F (configuration not stated)" units_symbol=% experimental_value=22.83
molecule=CCOc1ccc(C#N)cc1NCC(=O)NC(=O)Nc1ccccc1 units_symbol=% experimental_value=-20.07
molecule=Cn1cnc2c1CCN(CCOc1ccc(C#N)cc1)C2 units_symbol=% experimental_value=2.022
molecule=CN1C[C@@H](C(=O)N2CCOCC2)[C@@]2(CCc3ccccc3C(=O)N2)C1 units_symbol=% experimental_value=-1.963
molecule=Cc1ccc(NS(=O)(=O)c2cc3c(c(C(=O)O)c2)OCCO3)cc1F units_symbol=% experimental_value=6.057
molecule="Cc1cc(C(=O)N2CCCC(n3cncn3)C2)no1 (configuration not stated)" units_symbol=% experimental_value=2.312
